What EC50 was measured for each of the following?
- System under test: human α2B adrenergic receptor (Homo sapiens)
- Sequence (P18089 whole entry): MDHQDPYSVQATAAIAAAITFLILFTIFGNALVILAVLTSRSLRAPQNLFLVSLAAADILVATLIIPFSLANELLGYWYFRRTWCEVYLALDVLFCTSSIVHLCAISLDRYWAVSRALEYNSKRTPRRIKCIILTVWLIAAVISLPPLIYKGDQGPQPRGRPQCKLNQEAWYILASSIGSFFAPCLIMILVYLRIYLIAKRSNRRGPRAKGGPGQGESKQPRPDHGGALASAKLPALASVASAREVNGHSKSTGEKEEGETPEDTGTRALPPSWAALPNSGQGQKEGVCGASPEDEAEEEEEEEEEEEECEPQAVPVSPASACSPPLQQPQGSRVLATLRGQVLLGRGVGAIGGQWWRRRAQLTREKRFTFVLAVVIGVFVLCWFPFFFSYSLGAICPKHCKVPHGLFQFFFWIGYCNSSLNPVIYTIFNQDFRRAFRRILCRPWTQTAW
- Method summary: biochemical
Just the number please, in nM, no unit attached.

Briefly, EC50 measured for Cc1cccc([C@H](C)c2cnc[nH]2)c1C [Dexmedetomidine] : 2.8

Kindly note the recorded EC50 for CC(Oc1c(Cl)cccc1Cl)C1=NCCN1 (centres unmarked) [Lofexidine] , which is 43

----------
- System under test: UniProtKB P18089
- Method summary: cell-based
Metric: pEC50
// pEC50 here means minus log10 of the molar concentration (mol/L)

Per the reported UniProtKB P18089 data, `Cc1cccc([C@H](C)c2cnc[nH]2)c1C` has pEC50 of 9.22
